Exercise: for every item that follows, state its recorded MIC.
# System: Mycobacterium tuberculosis
# Experiment summary: Antitubercular activity against rifampicin-resistant Mycobacterium tuberculosis assessed as growth inhibition after 2 to 3 weeks by broth microdilution method
# Format: functional

| Compound | MIC |
| --- | --- |
| Cc1c(CN2CCN(c3ccc(N4C[C@H](Cn5cc(-c6ccccc6)nn5)OC4=O)cc3F)CC2)cc(-c2ccc(Cl)c(F)c2)n1-c1ccc(OC(F)(F)F)cc1 | > 16 µg/mL |

# map each compound to its MIC
1. Cc1c(CN2CCN(c3ccc(N4C[C@H](Cn5cc(-c6ccccc6)nn5)OC4=O)cc3F)CC2)cc(-c2cccc(Cl)c2)n1-c1ccccc1F
2. CO[C@H]1/C=C/O[C@@]2(C)Oc3c(C)c(O)c4c(O)c(c(/C=N/N5CCN(C)CC5)c(O)c4c3C2=O)NC(=O)/C(C)=C\C=C\[C@H](C)[C@H](O)[C@@H](C)[C@@H](O)[C@@H](C)[C@H](OC(C)=O)[C@@H]1C [RIFAMPIN]

Reply:
1. > 16 µg/mL
2. > 128 µg/mL

* * *

Exercise: for every item that follows, state its recorded MIC.
# Tested on: Mycobacterium tuberculosis
# Experiment summary: Antitubercular activity against rifampicin-resistant Mycobacterium tuberculosis assessed as growth inhibition after 2 to 3 weeks by broth microdilution method
# Type: functional

Reference set, count: 2
| Compound string | MIC |
| --- | --- |
| Cc1c(CN2CCN(c3ccc(N4C[C@H](Cn5cc(-c6ccccc6)nn5)OC4=O)cc3F)CC2)cc(-c2ccc(F)cc2F)n1-c1cc(F)ccc1Br | > 16 µg/mL |
| Cc1ccc(-c2cc(CN3CCN(c4ccc(N5C[C@H](Cn6cc(-c7ccccc7)nn6)OC5=O)cc4F)CC3)c(C)n2-c2ccc(Cl)c(Cl)c2)cc1 | > 16 µg/mL |

Ask: Determine its reported MIC: `Cc1cccc(-c2cn(C[C@H]3CN(c4ccc(N5CCN(Cc6cc(-c7ccccc7C)n(-c7ccc(F)cc7)c6C)CC5)c(F)c4)C(=O)O3)nn2)c1`
Reply: > 16 µg/mL
